Assay: Inhibition of oxygen evolution rate in spinach chloroplasts
Assay type: functional, Spinacia oleracea
test.readout: IC50 (mmol/dm3)

structure: COc1ccc(Nc2nc(Nc3ccc(OC)cc3)nc(Nc3ccc(OC)cc3)n2)cc1
unit.of.measure: mmol/dm3
quantitative.readout: 0.241
//
structure: CN(C)C(=O)Nc1ccc(Cl)c(Cl)c1
unit.of.measure: mmol/dm3
quantitative.readout: 0.0019
//
structure: CC(=O)Nc1nc(NC(C)=O)nc(NC(C)=O)n1
unit.of.measure: mmol/dm3
quantitative.readout: 0.148
//
structure: CNc1nc(NC)nc(NC)n1
unit.of.measure: mmol/dm3
quantitative.readout: 0.118
//
structure: c1ccc(Nc2nc(Nc3ccccc3)nc(Nc3ccccc3)n2)cc1
unit.of.measure: mmol/dm3
quantitative.readout: 1.072
//
structure: Oc1nc(O)nc(O)n1
unit.of.measure: mmol/dm3
quantitative.readout: 0.081
//
structure: CCN(CC)c1nc(N(CC)CC)nc(N(CC)CC)n1
unit.of.measure: mmol/dm3
quantitative.readout: 0.244
//
structure: CN(C)c1nc(N(C)C)nc(N(C)C)n1
unit.of.measure: mmol/dm3
quantitative.readout: 0.486

* * *

Tested on: Mycobacterium tuberculosis
Test: Antimycobacterial activity against Mycobacterium tuberculosis H37Rv relative to control
Assay type: functional
Parameters: concentration or dose not given beside the values

molecule: CO[C@H]1/C=C/O[C@@]2(C)Oc3c(C)c(O)c4c(O)c(c(/C=N/N5CCN(C)CC5)c(O)c4c3C2=O)NC(=O)/C(C)=C\C=C\[C@H](C)[C@H](O)[C@@H](C)[C@@H](O)[C@@H](C)[C@H](OC(C)=O)[C@@H]1C [RIFAMPIN]
Inhibition: 100%
//
molecule: CNc1nc(NC)nc(NC)n1
Inhibition: 24%
//
molecule: CN(C)c1nc(N(C)C)nc(N(C)C)n1 [ALTRETAMINE]
Inhibition: 28%
